target: Recombinant human Cbl-b (aa 36-427) (Homo sapiens); assay: Cbl-b Biochemical Assay (TR-FRET); conditions: read-out: TR-FRET hCbl-b IC50
Sequence (Q13191 36-427): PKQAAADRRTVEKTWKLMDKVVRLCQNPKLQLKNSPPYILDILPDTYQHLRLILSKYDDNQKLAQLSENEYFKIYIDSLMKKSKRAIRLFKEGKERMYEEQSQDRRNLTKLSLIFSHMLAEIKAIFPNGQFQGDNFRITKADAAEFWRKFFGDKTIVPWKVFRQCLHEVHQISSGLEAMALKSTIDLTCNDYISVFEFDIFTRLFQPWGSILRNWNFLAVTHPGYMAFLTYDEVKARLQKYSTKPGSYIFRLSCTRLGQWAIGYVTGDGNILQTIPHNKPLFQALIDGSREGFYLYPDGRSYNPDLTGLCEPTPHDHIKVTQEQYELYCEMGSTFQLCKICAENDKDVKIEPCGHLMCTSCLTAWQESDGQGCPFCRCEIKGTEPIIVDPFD
IC50 for assorted compounds

>  <substance.smiles>
Cn1cnnc1CC1(c2cccc(-c3nc4cccc(OC(F)(F)F)c4[nH]3)c2)COC1

>  <IC50>
10000 to 50000 nM

$$$$
>  <substance.smiles>
COc1cc(CN[C@H]2C[C@H](O)C2)cc2nc(-c3cccc(-c4ccc(F)cc4-c4nncn4C)c3)oc12

>  <IC50>
200 to 1000 nM

$$$$
>  <substance.smiles>
CN1CC[C@@H](Oc2ccc3nc(-c4cccc(-c5ccccc5-c5nncn5C)c4)[nH]c3c2C(F)(F)F)C1

>  <IC50>
10000 to 50000 nM

$$$$
>  <substance.smiles>
COCCNCc1cc(C(F)(F)F)c2oc(-c3cccc(-c4ccc(F)cc4-c4nncn4C)c3)nc2c1

>  <IC50>
< 200 nM

$$$$
>  <substance.smiles>
COC[C@H](C)NCc1cc(C)c2oc(-c3cccc(-c4ccc(F)cc4-c4nncn4C)c3)nc2c1

>  <IC50>
< 200 nM

$$$$
>  <substance.smiles>
C[C@H]1CCCN(Cc2cc(C(F)(F)F)c3[nH]c(-c4cccc([C@]5(c6nncn6C)C[C@@H](C)C5)c4)nc3c2)C1

>  <IC50>
< 200 nM

$$$$
>  <substance.smiles>
CCNc1cc(-c2ccc(F)cc2-c2nncn2C)cc(-c2nc3cccc(C(F)(F)F)c3o2)n1

>  <IC50>
200 to 1000 nM

$$$$
>  <substance.smiles>
Cn1cnnc1-c1cc(F)ccc1-c1cccc(-c2nc3cc(CNCC(C)(C)O)cc(C(F)(F)F)c3[nH]2)c1

>  <IC50>
< 200 nM

$$$$
>  <substance.smiles>
Cc1cc(CNCC2(O)CCC2)cc2nc(-c3cc(-c4ccc(F)cc4-c4nncn4C)cc(C4CC4)n3)oc12

>  <IC50>
< 200 nM

$$$$
>  <substance.smiles>
CON(C)C(=O)c1cc(C(F)(F)F)c2oc(-c3cccc(-c4ccc(F)cc4-c4nncn4C)c3)nc2c1

>  <IC50>
< 200 nM

$$$$
>  <substance.smiles>
CCC1(CNCc2cc(C(F)(F)F)c3oc(-c4cccc(-c5ccc(F)cc5-c5nncn5C)c4)nc3c2)CCC1

>  <IC50>
< 200 nM

$$$$
